Hey, just so you know, these numbers are from ChEMBL document CHEMBL3779839.

target: G-protein coupled receptor 55 (Homo sapiens, UniProt Q9Y2T6); experiment: Partial agonist activity at recombinant human GPR55 expressed in HEK293 cells after 5 mins by xCELLigence assay; assay type: cell-based
Sequence (Q9Y2T6 whole entry): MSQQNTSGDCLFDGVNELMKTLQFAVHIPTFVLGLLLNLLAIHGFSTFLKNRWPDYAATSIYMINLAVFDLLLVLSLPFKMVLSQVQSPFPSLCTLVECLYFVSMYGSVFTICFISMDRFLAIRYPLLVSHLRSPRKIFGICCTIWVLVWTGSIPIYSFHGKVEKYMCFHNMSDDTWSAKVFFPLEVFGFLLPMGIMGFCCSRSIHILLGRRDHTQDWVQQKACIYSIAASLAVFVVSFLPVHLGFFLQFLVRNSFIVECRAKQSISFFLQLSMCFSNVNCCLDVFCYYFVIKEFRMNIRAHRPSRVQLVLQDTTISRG
Reported pEC50 values for the following molecules.
Convention used: pEC50 is expressed as -log10 of the molar concentration.

Entry COc1ccc2c(c1)OC(C)(C)c1cn(CCN3CCN(C(=O)C4CCCO4)CC3)nc1-2 (stereo not drawn) ; pEC50 = 9.40

Entry "COc1ccc2c(c1)OC(C)(C)c1cn(CCN3CCN(C(=O)c4ccccc4)CC3)nc1-2" ; pEC50 = 9.22

Entry "COc1ccc2c(c1)OC(C)(C)c1cn(CNC(=O)CN3CCN(c4ccccc4OC)CC3)nc1-2" ; pEC50 = 8.20

---

target: G-protein coupled receptor 55 (Homo sapiens); test: Antagonist activity at recombinant human GPR55 expressed in HEK293 cells assessed as LPI mediated receptor activation by measuring LPI Emax at 1 uM after 5 mins by xCELLigence assay (reference value: 99 to 104%); format: cell-based
readout.label: Emax

Known results for compounds:
Entry COc1ccc2c(c1)OC(C)(C)c1cn(CCN3CCN(C(=O)C4CCCO4)CC3)nc1-2 (stereo not given) ; Emax = 102%

Entry "COc1ccc2c(c1)OC(C)(C)c1cn(CNC(=O)CN3CCN(c4ccccc4OC)CC3)nc1-2" ; Emax = 90%

Entry "COc1ccc2c(c1)OC(C)(C)c1cnn(CCN3CCN(C(=O)c4cccs4)CC3)c1-2" ; Emax = 99%

Entry "COc1ccc2c(c1)OC(C)(C)c1cnn(CNC(=O)CN3CCN(c4ccccc4)CC3)c1-2" ; Emax = 97%

Further cases:
Entry "COc1ccc2c(c1)OC(C)(C)c1cn(CCN3CCN(C(=O)C4CCCCC4)CC3)nc1-2" ; Emax = 99%

---

target: Cannabinoid receptor 2 (Homo sapiens, UniProt P34972)
Sequence (P34972 whole entry): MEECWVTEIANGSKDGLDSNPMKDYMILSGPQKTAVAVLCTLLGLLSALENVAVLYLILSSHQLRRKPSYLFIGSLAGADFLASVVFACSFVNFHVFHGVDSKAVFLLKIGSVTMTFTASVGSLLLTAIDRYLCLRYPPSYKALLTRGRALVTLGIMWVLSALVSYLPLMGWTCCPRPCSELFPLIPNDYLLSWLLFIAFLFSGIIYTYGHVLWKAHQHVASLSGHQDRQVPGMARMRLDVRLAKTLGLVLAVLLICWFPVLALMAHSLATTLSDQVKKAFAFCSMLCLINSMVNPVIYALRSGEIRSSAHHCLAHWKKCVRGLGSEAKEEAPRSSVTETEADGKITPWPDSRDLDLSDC
Ki vs 1 µM: less than gives met; not less than gives not met.

Example entries and their recorded answers appear below.
Q) is_below(Ki, 1 µM) for COc1ccc2c(c1)OC(C)(C)c1cn(CCN3CCN(C(=O)C4CCCO4)CC3)nc1-2 (stereo not given) ?
A) not met

Q) is_below(Ki, 1 µM) for "COc1ccc2c(c1)OC(C)(C)c1cn(CCN3CCN(C(=O)c4ccco4)CC3)nc1-2" ?
A) met

Further cases:
Q) is_below(Ki, 1 µM) for "COc1ccc2c(c1)OC(C)(C)c1cnn(CNC(=O)CN3CCN(c4cccc(C)c4C)CC3)c1-2" ?
A) not met

Q) is_below(Ki, 1 µM) for "COc1ccc2c(c1)OC(C)(C)c1cn(CCN3CCN(C(=O)C4CCCCC4)CC3)nc1-2" ?
A) met

Q) is_below(Ki, 1 µM) for "COc1ccc2c(c1)OC(C)(C)c1cn(CCN3CCN(C(=O)c4ccccc4)CC3)nc1-2" ?
A) not met

Q) is_below(Ki, 1 µM) for "COc1ccc2c(c1)OC(C)(C)c1cn(CNC(=O)CN3CCN(c4cccc(C)c4C)CC3)nc1-2" ?
A) not met

Q) is_below(Ki, 1 µM) for "COc1ccc(N2CCN(CC(=O)NCn3ncc4c3-c3ccc(OC)cc3OC4(C)C)CC2)cc1" ?
A) not met

Q) is_below(Ki, 1 µM) for "COc1ccc2c(c1)OC(C)(C)c1cn(CCN3CCN(C(=O)COc4ccccc4)CC3)nc1-2" ?
A) not met

Q) is_below(Ki, 1 µM) for "COc1ccc2c(c1)OC(C)(C)c1cnn(CNC(=O)CN3CCN(c4ccccc4)CC3)c1-2" ?
A) not met

Q) is_below(Ki, 1 µM) for "COc1ccc2c(c1)OC(C)(C)c1cn(CNC(=O)CN3CCN(c4ccccc4OC)CC3)nc1-2" ?
A) not met

---

target: G-protein coupled receptor 55 (Homo sapiens); experiment: Antagonist activity at recombinant human GPR55 expressed in HEK293 cells assessed as LPI mediated receptor activation by measuring LPI Emax at 1 uM after 5 mins by xCELLigence assay (reference value: 99 to 104%); type: cell-based
readout.label: Emax (%)
Report the figure in % without appending any unit label.

Entry "COc1ccc2c(c1)OC(C)(C)c1cn(CCN3CCN(C(=O)C(C)(C)C)CC3)nc1-2" ; Emax = 100

Entry "COc1ccc(N2CCN(CC(=O)NCn3ncc4c3-c3ccc(OC)cc3OC4(C)C)CC2)cc1" ; Emax = 80

---

target: G-protein coupled receptor 55 (Homo sapiens); test: Partial agonist activity at recombinant human GPR55 expressed in HEK293 cells at 1 uM after 5 mins by xCELLigence assay relative to LPI; format: cell-based
readout.label: Emax (%)
Report the figure in % without appending any unit label.

Known results for compounds:
Emax for G-protein coupled receptor 55 (Homo sapiens) with input "COc1ccc2c(c1)OC(C)(C)c1cn(CCN3CCN(C(=O)c4ccccc4)CC3)nc1-2" equals 51

Emax for G-protein coupled receptor 55 (Homo sapiens) with input "COc1ccc2c(c1)OC(C)(C)c1cn(CCN3CCN(C(=O)COc4ccccc4)CC3)nc1-2" equals 52

Emax for G-protein coupled receptor 55 (Homo sapiens) with input "COc1ccc2c(c1)OC(C)(C)c1cn(CCN3CCN(C(=O)c4ccco4)CC3)nc1-2" equals 43

Emax for G-protein coupled receptor 55 (Homo sapiens) with input COc1ccc2c(c1)OC(C)(C)c1cn(CCN3CCN(C(=O)C4CCCO4)CC3)nc1-2 (stereo not drawn) equals 51

Emax for G-protein coupled receptor 55 (Homo sapiens) with input "COc1ccc2c(c1)OC(C)(C)c1cn(CCN3CCN(C(=O)C(C)(C)C)CC3)nc1-2" equals 49

Emax for G-protein coupled receptor 55 (Homo sapiens) with input "COc1ccc2c(c1)OC(C)(C)c1cn(CCN3CCN(C(=O)C4CCCCC4)CC3)nc1-2" equals 47

Emax for G-protein coupled receptor 55 (Homo sapiens) with input "COc1ccc2c(c1)OC(C)(C)c1cn(CNC(=O)CN3CCN(c4ccccc4OC)CC3)nc1-2" equals 51

From here, focus on the item given below.
Emax for G-protein coupled receptor 55 (Homo sapiens) with input "COc1ccc2c(c1)OC(C)(C)c1cn(CCN3CCN(C(=O)c4cccs4)CC3)nc1-2" equals 45

---

target: Cannabinoid receptor 2 (Homo sapiens, UniProt P34972); assay: Agonist activity at human CB2 receptor expressed in CHO cells after 30 mins by [35S]-GTPgammaS binding assay relative to control
readout.label: EC50 (nM)
Report the figure in nM without appending any unit label.

EC50 for Cannabinoid receptor 2 (Homo sapiens, UniProt P34972) with input "COc1ccc2c(c1)OC(C)(C)c1cn(CCN3CCN(C(=O)c4cccs4)CC3)nc1-2" equals 392

---

biological target: G-protein coupled receptor 55 (Homo sapiens, UniProt Q9Y2T6); test: Agonist activity at recombinant human GPR55 expressed in HEK293 cells after 5 mins by xCELLigence assay; assay type: cell-based
Activity calls are given as the source filed them. The calls are words filed in the database; no cut-off is given here.
readout.label: Activity

Known results for molecules:
Entry "COc1ccc2c(c1)OC(C)(C)c1cnn(CNC(=O)CN3CCN(c4cccc(C)c4C)CC3)c1-2" ; Activity = inactive

Entry "COc1ccc2c(c1)OC(C)(C)c1cn(CNC(=O)CN3CCN(c4ccccc4)CC3)nc1-2" ; Activity = inactive

Entry "COc1ccc2c(c1)OC(C)(C)c1cnn(CNC(=O)CN3CCN(c4ccccc4OC)CC3)c1-2" ; Activity = inactive

Entry "COc1ccc2c(c1)OC(C)(C)c1cn(CNC(=O)CN3CCN(c4cccc(C)c4C)CC3)nc1-2" ; Activity = inactive

Entry "COc1ccc2c(c1)OC(C)(C)c1cnn(CNC(=O)CN3CCN(c4ccccc4)CC3)c1-2" ; Activity = inactive

Further cases:
Entry "COc1ccc(N2CCN(CC(=O)NCn3ncc4c3-c3ccc(OC)cc3OC4(C)C)CC2)cc1" ; Activity = inactive

---

target: G-protein coupled receptor 55 (Homo sapiens, UniProt Q9Y2T6); assay: Antagonist activity at recombinant human GPR55 expressed in HEK293 cells assessed as LPI mediated receptor activation by measuring LPI Emax at 1 uM after 5 mins by xCELLigence assay (reference value: 99 to 104%); assay type: cell-based
readout.label: Emax (%)
Report the figure in % without appending any unit label.

Known results for compounds:
Emax for G-protein coupled receptor 55 (Homo sapiens, UniProt Q9Y2T6) with input "COc1ccc2c(c1)OC(C)(C)c1cn(CCN3CCN(C(=O)COc4ccccc4)CC3)nc1-2" equals 100

Emax for G-protein coupled receptor 55 (Homo sapiens, UniProt Q9Y2T6) with input "COc1ccc2c(c1)OC(C)(C)c1cn(CCN3CCN(C(=O)c4ccco4)CC3)nc1-2" equals 106

Emax for G-protein coupled receptor 55 (Homo sapiens, UniProt Q9Y2T6) with input "COc1ccc2c(c1)OC(C)(C)c1cn(CCN3CCN(C(=O)c4cccs4)CC3)nc1-2" equals 96

Emax for G-protein coupled receptor 55 (Homo sapiens, UniProt Q9Y2T6) with input "COc1ccc2c(c1)OC(C)(C)c1cn(CNC(=O)CN3CCN(c4cccc(C)c4C)CC3)nc1-2" equals 102

Emax for G-protein coupled receptor 55 (Homo sapiens, UniProt Q9Y2T6) with input "COc1ccc2c(c1)OC(C)(C)c1cn(CNC(=O)CN3CCN(c4ccccc4)CC3)nc1-2" equals 94

Further cases:
Emax for G-protein coupled receptor 55 (Homo sapiens, UniProt Q9Y2T6) with input "COc1ccc2c(c1)OC(C)(C)c1cn(CCN3CCN(C(=O)c4ccccc4)CC3)nc1-2" equals 105

Emax for G-protein coupled receptor 55 (Homo sapiens, UniProt Q9Y2T6) with input "COc1ccc2c(c1)OC(C)(C)c1cnn(CCN3CCN(C(=O)c4ccco4)CC3)c1-2" equals 97
